# system.name: Myc proto-oncogene protein (Homo sapiens)
# assay.name: ATG_Myc_CIS: Attagene CIS-FACTORIAL HepG2 Assay for human Myelocytomatosis (Myc) Proto-Oncogene Transcription Factor (AID 2282990)
# protocol.conditions: HepG2, Attagene cis-reporter transcription factor activity; actives raise or lower the signal
Calls of active or inactive are those of the source. How the source made its calls: active means hit-call score of the fitted dose curve at least 0.9, where 1 is the maximum; inactive means score below 0.9.
Outcome codes: active, inactive

smiles.code: C=CC(=C)CC/C=C(\C)CCC=C(C)C
class.label: inactive
--
smiles.code: CCc1ccccc1O
class.label: inactive
--
smiles.code: CCCCCCCCCCCCCCC
class.label: inactive
--
smiles.code: COc1cc(OC)nc(NC(=O)NS(=O)(=O)Nc2ccccc2C(=O)N(C)C)n1
class.label: inactive
--
smiles.code: O=S(=O)(O)c1ccc2cc(O)ccc2c1
class.label: inactive
--
smiles.code: Cc1ccc2ccc3ccc(C)cc3c2c1
class.label: inactive
--
smiles.code: CC(C)[C@@H]1CC[C@@H](C)C[C@H]1O
class.label: inactive
--
smiles.code: O=C(C=C(O)C(F)(F)F)C(F)(F)F
class.label: inactive
--
smiles.code: C=CC(=O)OCCC(F)(F)C(F)(F)C(F)(F)C(F)(F)C(F)(F)C(F)(F)F
class.label: inactive
--
smiles.code: COc1cccc(O)c1
class.label: inactive
--
smiles.code: CCCCN(C)C
class.label: inactive
--
smiles.code: O=C(Nc1ccc(Cl)c(Cl)c1)c1cc(Cl)cc(Cl)c1O
class.label: inactive
--
smiles.code: COCN(COC)c1nc(N(COC)COC)nc(N(COC)COC)n1
class.label: inactive
--
smiles.code: Cc1cc(=O)oc2cc(O)ccc12
class.label: inactive
--
smiles.code: CCCCCCCCCCCCCCCC(=O)OC
class.label: inactive
--
smiles.code: CCCCCCCC(OC)OC
class.label: inactive
--
smiles.code: CC(C)(C)c1ccc(O)c(O)c1
class.label: inactive
--
smiles.code: O=C1OC2(c3ccccc31)c1cc(I)c(O)c(I)c1Oc1c2cc(I)c(O)c1I
class.label: inactive
--
smiles.code: O=C(OC(=O)C(F)(F)C(F)(F)F)C(F)(F)C(F)(F)F
class.label: inactive
--
smiles.code: COc1ccccc1NC(=O)c1cc2ccccc2cc1O
class.label: active
--
smiles.code: NS(=O)(=O)O
class.label: inactive
--
smiles.code: CC(C)(O)C(=O)c1ccccc1
class.label: inactive
--
smiles.code: O=C(Nc1cccc([N+](=O)[O-])c1)c1cc2ccccc2cc1O
class.label: inactive
--
smiles.code: O=C(CC(=O)C(F)(F)C(F)(F)C(F)(F)F)c1cccs1
class.label: inactive
--
smiles.code: O=C(F)C(F)(F)C(F)(F)C(F)(F)C(=O)F
class.label: inactive
--
smiles.code: CCOC(OCC)C(=O)c1ccccc1
class.label: inactive
--
smiles.code: Oc1cccc2c(O)cccc12
class.label: inactive
--
smiles.code: CCc1cccc(CC)c1NC(=O)C(=O)O
class.label: inactive
--
smiles.code: CN(Cc1cnc2nc(N)nc(N)c2n1)c1ccc(C(=O)N[C@@H](CCC(=O)O)C(=O)O)cc1
class.label: inactive

Ref: PubChem BioAssay (EPA / NIEHS)
